# system.tested: HLA-A*02:01 (Homo sapiens, UniProt P04439, D140Y/D185E/D98H/E176V/E277Q/G131W/G231S/I119V/I121R/I166T/I218V/L300P/L318F/N151K/N90K/P208A/P217A/Q86G/Q94H/R138H/R169H/T345S)
# assay.info: MHC binding assay: UV-ligand exchange with β2m ELISA
# assay.conditions: binding of HLA-class I restricted peptides to HLA-A*02:01
parameter.measured: Peptide exchange (MHC class I binding score, peptide exchange yield)

The cases that follow already have their Peptide exchange (MHC class I binding score, peptide exchange yield) on record.
19 (ALAKLLPLL; listed as Homo sapiens) [compound 19] = ++++ (>75% = ++++)
73 (YIDPYKLLPL; listed as Homo sapiens) [compound 73] = +++ (>50 = +++)
44 (GLGDDSFPI; listed as Homo sapiens) [compound 44] = ++++ (>75% = ++++)
31 (HLATVKLLV; listed as Homo sapiens) [compound 31] = ++++ (>75% = ++++)
2 (PVCPPGGIQEV; listed as Homo sapiens) [compound 2] = +++ (>50 = +++)
58 (SLSDIQPCL; listed as Homo sapiens) [compound 58] = +++ (>50 = +++)

For each of the items listed, what is its Peptide exchange (MHC class I binding score, peptide exchange yield)?
1. 87 (ALPEPSPAA; listed as Homo sapiens) [compound 87]
2. 62 (ILSSACYTV; listed as Homo sapiens) [compound 62]
3. 53 (RLVEVGGDVQL; listed as Homo sapiens) [compound 53]
4. 23 (SLPESGLLSV; listed as Homo sapiens) [compound 23]

Result:
["+++ (>50 = +++)", "++++ (>75% = ++++)", "++++ (>75% = ++++)", "+++ (>50 = +++)"]
